Could you please report measured T/C for the items listed next?
- Test system: L1210 leukemia ip in BDF1 mice, survival T/C
- Test Protocol: NCI In Vivo Anticancer Drug Screen. Data for tumor model L1210 Leukemia (intraperitoneal) in B6D2F1 (BDF1) mice
- Condition Description: endpoint: mean survival time; dose: 5.0 mg/kg/injection; schedule: Q01DX001 (ip); vehicle: saline; higher = longer survival
Toxic doses and inconclusive results are not listed.

Some compounds with known T/C results, for comparison:
| Compound | Recorded Endpoint | Recorded Value |
| --- | --- | --- |
| CCC1(/C(C)=C/C(C)C)C(=O)NC(=O)NC1=O | T/C | 96 % of control |
| CCC(=O)C(c1ccccc1)(c1ccccc1)C(C)CN(C)C (configuration not stated) | T/C | 102 % of control |
| CC1(C)N=C(N)N=C(N)N1c1cccc(OCCCOc2cccc(NC(=O)CBr)c2)c1 | T/C | 95 % of control |

For each of the compounds below, note its T/C.
1. [N-]=[N+]=C1C(c2ccccc2)=NC(c2nccc3ccccc23)=C1[N+](=O)[O-]
2. c1ccc(-c2nc(-c3ccccn3)nc(-c3ccccn3)n2)nc1
3. COc1ccc(C[As+](Cc2ccccc2)(Cc2ccc(OC)cc2)Cc2ccc(OC)cc2)cc1

1. 113 % of control
2. 107 % of control
3. 103 % of control

T/C reading for O=C(O)c1cc(C(=O)O)c(C(=O)O)cc1C(=O)O (tested in a mixture with another compound) : 107 % of control
